Assay: Apparent terminal half life in CD-1 mouse at 3 mg/kg, iv
Assay type: ADME, organism-based
Parameters: dose 3 mg/kg, route intravenous
Conditions: in vivo, read-out: betat1/2(app) (converted)
Readout Kind: half-life (min)
Please respond with the number in min and leave the unit unwritten.

Asked: Could you share which half-life value was measured for CC(C)(O)c1cc(-c2nc(NCCc3ccc(F)cc3)nc(OCF)n2)ccc1Cl ?
Given back: 57.6

----------
Assay: Drug metabolism in baboon neuroinflammation model plasma assessed as compound remaining at 110 +/- 34 MBq, iv after 180 mins by HPLC analysis
Assay type: ADME, organism-based
Details: papio anubis, read-out: Stability
Readout Kind: remaining at 3 h (%)
Express it in %; write the number only.

Asked: # remaining at 3 h lookup, item [2H]C([2H])([18F])Oc1nc(NCCc2ccc(F)cc2)nc(-c2ccc(Cl)c(C(C)(C)O)c2)n1
Given back: 35
